The molecules below have reported log10 of IC50 for Mu-type opioid receptor (Rattus norvegicus).
Kindly note that the scale is log10 and the underlying IC50 is in nM.

Worked examples, 3 molecules total:
molecule	log10 of IC50
CCN[C@H](CN[C@H](CN[C@H](CN)Cc1ccccc1)Cc1ccc(O)cc1)Cc1ccc(O)cc1	1.67
CNC[C@H](Cc1ccccc1)N(C)C[C@@H](Cc1ccc(O)cc1)N(C)C[C@@H](Cc1ccc(O)cc1)N(C)C	3.18
CNC[C@@H](Cc1ccccc1)N(C)C[C@H](Cc1ccc(O)cc1)N(C)C[C@@H](Cc1ccc(O)cc1)N(C)C	2.98

Now let's try a different one.
Would you kindly share the measured log10 of IC50 for CNC[C@H](Cc1ccc(O)cc1)N(Cc1ccccc1)C[C@H](Cc1ccc(O)cc1)N(C)C ? 3.11

###

The molecules below have reported IC50 for Mu-type opioid receptor (Rattus norvegicus).
Give the number; nM is assumed, so skip it.

Worked examples, 5 molecules total:
In [3]: df
Out[3]:
                                 smilestext  reportedmeasurement
0  CCN[C@H](CN[C@H](CN[C@@H](Cc1ccc(O)cc1)CN1CCC[C@H]1CN[C@H](CN[C@H](CN)Cc1ccccc1)Cc1ccc(O)cc1)Cc1ccc(O)cc1)Cc1ccc(O)cc1                   83
1  CCN[C@H](CN[C@H](CN[C@@H](Cc1ccc(O)cc1)CN1CCC[C@H]1CN)Cc1ccc(O)cc1)Cc1ccc(O)cc1                   13
2  CNC[C@H](Cc1ccccc1)N(C)C[C@@H](Cc1ccc(O)cc1)N(C)C[C@@H](N)Cc1ccc(O)cc1                  339
3  CNC[C@@H](Cc1ccccc1)N(C)C[C@@H](Cc1ccc(O)cc1)N(C)C[C@H](Cc1ccc(O)cc1)N(C)C                  876
4  CCN[C@H](CN[C@H](CN[C@H](CN[C@H](CN[C@@H](CN[C@H](CN)CCSC)[C@@H](C)O)Cc1ccccc1)Cc1ccc(O)cc1)Cc1ccc(O)cc1)Cc1ccc(O)cc1                  181

Would you kindly share the measured IC50 for CCN[C@H](CN[C@H](CN[C@H](CN[C@H](CN[C@H](CN[C@@H](CN)CO)Cc1ccc(O)cc1)Cc1ccccc1)Cc1ccc(O)cc1)Cc1ccc(O)cc1)Cc1ccc(O)cc1 ? 345

###

target: Delta-type opioid receptor (Homo sapiens, UniProt P41143); assay: Displacement of [3H]DPDE from delta opioid receptor
Sequence (P41143 whole entry): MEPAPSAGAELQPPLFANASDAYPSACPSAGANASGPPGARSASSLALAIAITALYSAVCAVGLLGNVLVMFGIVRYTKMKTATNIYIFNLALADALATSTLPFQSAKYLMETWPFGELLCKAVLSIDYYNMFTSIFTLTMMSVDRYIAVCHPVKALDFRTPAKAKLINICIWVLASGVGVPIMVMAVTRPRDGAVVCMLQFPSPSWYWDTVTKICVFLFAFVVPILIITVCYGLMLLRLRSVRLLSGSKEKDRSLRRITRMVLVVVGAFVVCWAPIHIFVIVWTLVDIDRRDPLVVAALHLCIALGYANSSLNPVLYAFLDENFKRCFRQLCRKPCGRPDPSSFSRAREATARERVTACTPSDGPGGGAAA
measuredQuantity: IC50
Show the value, then the unit it is measured in.

>>> print(df.to_string())
                                 smilestext                            targetorsystem  measuredquantity  reportedmeasurement
0  CN(C)[C@@H](Cc1ccc(O)cc1)CN(C)[C@H](CNCc1ccccc1)Cc1ccc(O)cc1  Delta-type opioid receptor (Homo sapiens, UniProt P41143)              IC50              8.26 µM
1  CNC[C@H](Cc1ccccc1)N(C)C[C@@H](Cc1ccc(O)cc1)N(C)C[C@@H](N)Cc1ccc(O)cc1  Delta-type opioid receptor (Homo sapiens, UniProt P41143)              IC50              48.2 µM
2  CN[C@@H](Cc1ccc(O)cc1)CN(C)[C@H](CNCc1ccccc1)Cc1ccc(O)cc1  Delta-type opioid receptor (Homo sapiens, UniProt P41143)              IC50              3.97 µM
3  CN(C[C@@H](N)Cc1ccc(O)cc1)[C@H](CNCc1ccccc1)Cc1ccc(O)cc1  Delta-type opioid receptor (Homo sapiens, UniProt P41143)              IC50              10.2 µM

Now let's try a different one.
Would you kindly share the measured IC50 for CNC[C@H](Cc1ccc(O)cc1)N(Cc1ccccc1)C[C@H](Cc1ccc(O)cc1)NC ? 10.2 µM

Reference source: ChEMBL document CHEMBL1145313
